Items are presented alongside their recorded melting point.

# example entries with known answers
COMPOUND	melting point
CC1=C(C)CC2(CC(C)(C)Oc3cc(C#N)sc32)SC1 (centres unmarked) [Compound 50092]	148 to 149 °C
CC1(C)CC2(SCCCS2)c2sccc2O1 [Compound 50048]	121 to 123 °C
CC1=C(C)CC2(CC(C)(C)Oc3cc(S(=O)(=O)c4ccccc4)sc32)SC1 (centres unmarked) [Compound 50121]	175 to 178 °C
CC1=C(C)C[C@@]2(CC(C)(C)Oc3cc(C#N)sc32)[S@+]([O-])C1 (relative stereo) [Compound 50097]	179 to 183 °C

Next compound, melting point to be filled in.
In: Annotate the compound CC1=C(C)CC2(CC(C)(C)Oc3ccsc32)SC1 (centres unmarked) [Compound 50049] with its measured melting point.
Out: 90 to 92 °C

* * *

- Tested on: NIH 3T3 fibroblasts
- EXPERIMENT_DESCRIPTION: Cell growth potentiation test (potentiation of mitogenic activity of fetal calf serum, EZ4U cellular proliferation assay)
- Type: cell-based
- ASSAY_CONTEXT: Compound at 10 μM; 0% = base concentration of FCS alone (5% or 3%), 100% = minoxidil at 100 μM
OUTCOME_MEASURE: Cell growth potentiation relative to minoxidil at 100 μM (%)
Give a bare numeral; the unit % is implied.

# example entries with known answers
MOLECULE	ASSAY_SYSTEM	UNITS	RESULT_NUMBER
CC1(C)Oc2cc(C(F)(F)C(F)(F)F)sc2[C@@H](N2CCCCC2=O)[C@@H]1O (relative stereo)	NIH 3T3 fibroblasts	%	244
CC1(C)C=C(N2CCCC2=O)c2sc(S(=O)(=O)c3ccccc3)cc2O1	NIH 3T3 fibroblasts	%	233
CC1=C(C)CC2(CC(C)(C)Oc3cc(C#N)sc32)SC1 (stereo not shown)	NIH 3T3 fibroblasts	%	214
CC1(C)Oc2cc(S(=O)(=O)c3ccccc3)sc2[C@@H](N2CCCC2=O)[C@@H]1O (relative stereo)	NIH 3T3 fibroblasts	%	120
CC1=C(C)C[C@@]2(CC(C)(C)Oc3cc(C#N)sc32)[S@+]([O-])C1 (relative stereo)	NIH 3T3 fibroblasts	%	242
CC1(C)C=C(N2CCCC2=O)c2sc(C#N)cc2O1	NIH 3T3 fibroblasts	%	24

Next molecule, Cell growth potentiation relative to minoxidil at 100 μM (%) to be filled in.
In: Annotate the molecule CC1=C(C)CC2(CC(C)(C)Oc3cc(S(=O)(=O)c4ccccc4)sc32)SC1 (stereo not shown) with its measured Cell growth potentiation relative to minoxidil at 100 μM (%).
Out: 285

These data points were gathered from patent US6342517B1.
